# viability, T/C annotations
# Test system: OVCAR-5 complex spheroid (HUVEC/MSC), viability % T/C
# method: Anticancer human tumor OVCAR-5 cell line growth inhibition [Asc];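 further: spheroids exposed to agents for 7 days before readout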;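 on viability, T/C: 100% = DMSO vehicle-treated wells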
# experimental_setup: second compound 0.01 µM; first compound 10 µM; stronger effect = lower value
Number only, in %; omit the unit.

Example compounds with recorded viability, T/C:
compound | viability, T/C [%]
O=C(c1cc(Cc2n[nH]c(=O)c3ccccc23)ccc1F)N1CCN(C(=O)C2CC2)CC1 + CNC(C)C(=O)NC1CN(S(=O)(=O)c2cccc(S(=O)(=O)N3CCC4CCC(C(=O)NC(c5ccccc5)c5ccccc5)N4C(=O)C(NC(=O)C(C)NC)C3)c2)CCC2CCC(C(=O)NC(c3ccccc3)c3ccccc3)N2C1=O | 70.3
C#Cc1c(F)ccc2cc(O)cc(-c3ncc4c(N5CC6CCC(C5)N6)nc(OCC56CCCN5CC(F)C6)nc4c3F)c12 (centres undefined) + CNC(C)C(=O)NC1CN(S(=O)(=O)c2cccc(S(=O)(=O)N3CCC4CCC(C(=O)NC(c5ccccc5)c5ccccc5)N4C(=O)C(NC(=O)C(C)NC)C3)c2)CCC2CCC(C(=O)NC(c3ccccc3)c3ccccc3)N2C1=O | 40.2
C=C(F)C(=O)N1CCN(c2nc(OCC3CCCN3C)nc3c2CCN(c2cccc4cccc(Cl)c24)C3)CC1CC#N (centres undefined) + CNC(C)C(=O)NC1CN(S(=O)(=O)c2cccc(S(=O)(=O)N3CCC4CCC(C(=O)NC(c5ccccc5)c5ccccc5)N4C(=O)C(NC(=O)C(C)NC)C3)c2)CCC2CCC(C(=O)NC(c3ccccc3)c3ccccc3)N2C1=O | 0.22

Record request: viability, T/C value, item C=CC(=O)N1CCN(c2nc(=O)n(-c3c(C)ccnc3C(C)C)c3nc(-c4c(O)cccc4F)c(F)cc23)C(C)C1 (centres undefined) + CNC(C)C(=O)NC1CN(S(=O)(=O)c2cccc(S(=O)(=O)N3CCC4CCC(C(=O)NC(c5ccccc5)c5ccccc5)N4C(=O)C(NC(=O)C(C)NC)C3)c2)CCC2CCC(C(=O)NC(c3ccccc3)c3ccccc3)N2C1=O
105

* * *

# Test system: OVCAR-5 complex spheroid (HUVEC/MSC), viability % T/C
# method: Anticancer human tumor OVCAR-5 cell line growth inhibition [Asc];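 further: spheroids exposed to agents for 7 days before readout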
# experimental_setup: curve of first compound; second compound 0.1 µM
recorded_endpoint: IC50

Solved entries (count: 2):
compound | IC50
C=CC(=O)N1CCN(c2nc(=O)n(-c3c(C)ccnc3C(C)C)c3nc(-c4c(O)cccc4F)c(F)cc23)C(C)C1 (stereo not drawn) + CNC(C)C(=O)NC1CN(S(=O)(=O)c2cccc(S(=O)(=O)N3CCC4CCC(C(=O)NC(c5ccccc5)c5ccccc5)N4C(=O)C(NC(=O)C(C)NC)C3)c2)CCC2CCC(C(=O)NC(c3ccccc3)c3ccccc3)N2C1=O | > 10000 nM
CCN1C(C(=O)NC23CCC(C(=O)O)(CC2)CC3)C(c2cccc(Cl)c2F)C2(C(=O)Nc3cc(Cl)ccc32)C12CCCCC2 (stereo not drawn) + Cc1c(S(C)(=O)=O)c(-c2cc(F)cc(N3CCN(c4ccc(NS(=O)(=O)c5ccc(NC(CCN6CCC(C(=O)OCCCP(=O)(O)O)CC6)CSc6ccccc6)c(S(=O)(=O)C(F)(F)F)c5)cc4)CC3)c2)c(-c2ccc(Cl)cc2)n1C(C)C | > 3000 nM

Which IC50 value is on record for C=C(F)C(=O)N1CCN(c2nc(OCC3CCCN3C)nc3c2CCN(c2cccc4cccc(Cl)c24)C3)CC1CC#N (stereo not drawn) + CNC(C)C(=O)NC1CN(S(=O)(=O)c2cccc(S(=O)(=O)N3CCC4CCC(C(=O)NC(c5ccccc5)c5ccccc5)N4C(=O)C(NC(=O)C(C)NC)C3)c2)CCC2CCC(C(=O)NC(c3ccccc3)c3ccccc3)N2C1=O ?
968 nM

* * *

Parameter: viability, T/C. Scope: all listed entries.
# Test system: OVCAR-5 complex spheroid (HUVEC/MSC), viability % T/C
# method: Anticancer human tumor OVCAR-5 cell line growth inhibition [Asc];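 further: spheroids exposed to agents for 7 days before readout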;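 on viability, T/C: 100% = DMSO vehicle-treated wells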
# experimental_setup: second compound 0.0316 µM; first compound 0.0316 µM; stronger effect = lower value
// units = %; emit number, no label

Answered examples (4):
molecule | viability, T/C, %
NC1CCC(NC2CC2c2ccccc2)CC1 (stereo unspecified) + CNC(C)C(=O)NC1CN(S(=O)(=O)c2cccc(S(=O)(=O)N3CCC4CCC(C(=O)NC(c5ccccc5)c5ccccc5)N4C(=O)C(NC(=O)C(C)NC)C3)c2)CCC2CCC(C(=O)NC(c3ccccc3)c3ccccc3)N2C1=O | 69.1
C#Cc1c(F)ccc2cc(O)cc(-c3ncc4c(N5CC6CCC(C5)N6)nc(OCC56CCCN5CC(F)C6)nc4c3F)c12 (stereo unspecified) + CNC(C)C(=O)NC1CN(S(=O)(=O)c2cccc(S(=O)(=O)N3CCC4CCC(C(=O)NC(c5ccccc5)c5ccccc5)N4C(=O)C(NC(=O)C(C)NC)C3)c2)CCC2CCC(C(=O)NC(c3ccccc3)c3ccccc3)N2C1=O | 90.2
O=C(c1cc(Cc2n[nH]c(=O)c3ccccc23)ccc1F)N1CCN(C(=O)C2CC2)CC1 + CNC(C)C(=O)NC1CN(S(=O)(=O)c2cccc(S(=O)(=O)N3CCC4CCC(C(=O)NC(c5ccccc5)c5ccccc5)N4C(=O)C(NC(=O)C(C)NC)C3)c2)CCC2CCC(C(=O)NC(c3ccccc3)c3ccccc3)N2C1=O | 81.4
Cn1ncnc1[C@H]1c2n[nH]c(=O)c3cc(F)cc(c23)N[C@@H]1c1ccc(F)cc1 + CNC(C)C(=O)NC1CN(S(=O)(=O)c2cccc(S(=O)(=O)N3CCC4CCC(C(=O)NC(c5ccccc5)c5ccccc5)N4C(=O)C(NC(=O)C(C)NC)C3)c2)CCC2CCC(C(=O)NC(c3ccccc3)c3ccccc3)N2C1=O | 73.9

Which measured viability, T/C value corresponds to CCN1CCN(Cc2ccc(Nc3ncc(F)c(-c4cc(F)c5nc(C)n(C(C)C)c5c4)n3)nc2)CC1 + CNC(C)C(=O)NC1CN(S(=O)(=O)c2cccc(S(=O)(=O)N3CCC4CCC(C(=O)NC(c5ccccc5)c5ccccc5)N4C(=O)C(NC(=O)C(C)NC)C3)c2)CCC2CCC(C(=O)NC(c3ccccc3)c3ccccc3)N2C1=O ?
58.4

So what does the record say about viability, T/C for C=CC(=O)N1CCN(c2nc(=O)n(-c3c(C)ccnc3C(C)C)c3nc(-c4c(O)cccc4F)c(F)cc23)C(C)C1 (stereo unspecified) + CNC(C)C(=O)NC1CN(S(=O)(=O)c2cccc(S(=O)(=O)N3CCC4CCC(C(=O)NC(c5ccccc5)c5ccccc5)N4C(=O)C(NC(=O)C(C)NC)C3)c2)CCC2CCC(C(=O)NC(c3ccccc3)c3ccccc3)N2C1=O ?
74.4

* * *

# pIC50 listing for each entry below
# System: OVCAR-5 complex spheroid (HUVEC/MSC), viability % T/C
# method: Anticancer human tumor OVCAR-5 cell line growth inhibition [Asc];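 further: spheroids exposed to agents for 7 days before readout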
# experimental_setup: curve of first compound; second compound 0.1 µM
pIC50: −log10 of the molar value.

Field: example entries. Status: answers known.
compound | experimental_target | result
NC(=O)C(=Cn1cnc(-c2cc(C(F)(F)F)cc(C(F)(F)F)c2)n1)c1cncnc1 + CNC(C)C(=O)NC1CN(S(=O)(=O)c2cccc(S(=O)(=O)N3CCC4CCC(C(=O)NC(c5ccccc5)c5ccccc5)N4C(=O)C(NC(=O)C(C)NC)C3)c2)CCC2CCC(C(=O)NC(c3ccccc3)c3ccccc3)N2C1=O | OVCAR-5 complex spheroid (HUVEC/MSC), viability % T/C | 6.87
Cc1nc(N2CCC3(CC2)COC(C)C3N)c(CO)nc1Sc1ccnc(N)c1Cl (stereo not drawn) + CNC(C)C(=O)NC1CN(S(=O)(=O)c2cccc(S(=O)(=O)N3CCC4CCC(C(=O)NC(c5ccccc5)c5ccccc5)N4C(=O)C(NC(=O)C(C)NC)C3)c2)CCC2CCC(C(=O)NC(c3ccccc3)c3ccccc3)N2C1=O | OVCAR-5 complex spheroid (HUVEC/MSC), viability % T/C | < 5.52

Note: attention shifts to another entry.
Query for OVCAR-5 complex spheroid (HUVEC/MSC), viability % T/C: what pIC50 does the record show for CCN1CCN(Cc2ccc(Nc3ncc(F)c(-c4cc(F)c5nc(C)n(C(C)C)c5c4)n3)nc2)CC1 + Cc1c(S(C)(=O)=O)c(-c2cc(F)cc(N3CCN(c4ccc(NS(=O)(=O)c5ccc(NC(CCN6CCC(C(=O)OCCCP(=O)(O)O)CC6)CSc6ccccc6)c(S(=O)(=O)C(F)(F)F)c5)cc4)CC3)c2)c(-c2ccc(Cl)cc2)n1C(C)C ?
< 6.00

* * *

# System: OVCAR-5 complex spheroid (HUVEC/MSC), viability % T/C
# method: Anticancer human tumor OVCAR-5 cell line growth inhibition [Asc];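 further: spheroids exposed to agents for 7 days before readout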;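 on viability, T/C: 100% = DMSO vehicle-treated wells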
# experimental_setup: second compound 0.1 µM; first compound 0.316 µM; stronger effect = lower value
recorded_endpoint: viability, T/C (%)
# number only, unit % dropped from output

Using the record for CNC(C)C(=O)NC1CN(S(=O)(=O)c2cccc(S(=O)(=O)N3CCC4CCC(C(=O)NC(c5ccccc5)c5ccccc5)N4C(=O)C(NC(=O)C(C)NC)C3)c2)CCC2CCC(C(=O)NC(c3ccccc3)c3ccccc3)N2C1=O (stereo unspecified) + Cc1c(S(C)(=O)=O)c(-c2cc(F)cc(N3CCN(c4ccc(NS(=O)(=O)c5ccc(NC(CCN6CCC(C(=O)OCCCP(=O)(O)O)CC6)CSc6ccccc6)c(S(=O)(=O)C(F)(F)F)c5)cc4)CC3)c2)c(-c2ccc(Cl)cc2)n1C(C)C , report its viability, T/C.
85.2
